Hello, the source for this data is ChEMBL document CHEMBL4725336, in case you need it.

experiment: Cytotoxicity against human WI-38 cells assessed as inhibition of cell proliferation by MTT assay; type: cell-based; details: read-out: LD50 (the source's name)
readout_type: CC50 (µM)
Reply numerically in µM, unit not repeated.

Solved cases below.
smiles_input=O=C(c1ccccc1)[C@H]1Oc2ccc3ccccc3c2[C@@H]1C1CCCCC1 readout_type=CC50 unit_string=µM endpoint_result=74
smiles_input=O=C(c1ccccc1)[C@H]1Oc2ccc3ccccc3c2[C@@H]1c1ccc2ccccc2c1 readout_type=CC50 unit_string=µM endpoint_result=59
smiles_input=O=C(c1ccco1)[C@H]1Oc2ccc3cc(Br)ccc3c2[C@@H]1c1ccccc1 readout_type=CC50 unit_string=µM endpoint_result=92
smiles_input=O=C(c1ccccc1)[C@H]1Oc2ccc3ccccc3c2[C@@H]1c1ccc(Br)cc1 readout_type=CC50 unit_string=µM endpoint_result=77

Form field: reported CC50 of Cc1ccc(C(=O)[C@@H]2Cc3c(ccc4ccccc34)O2)cc1
58

// returns reported CC50 for input N#Cc1ccc(C(=O)[C@H]2Oc3ccc4ccccc4c3[C@@H]2c2ccc3ccccc3c2)cc1
88

For the molecule shown here, C[C@H]1c2c(ccc3ccccc23)O[C@@H]1C(=O)c1ccccc1 , give the reported CC50.
64

Name the recorded CC50 for CC(=O)[C@@H]1Cc2c(ccc3ccccc23)O1 .
47

What CC50 value was documented for this molecule, COc1ccc([C@H]2c3c(ccc4ccccc34)O[C@@H]2C(=O)c2ccccc2)cc1 ?
83

Any idea what CC50 was measured for CCC[C@H]1c2c(ccc3ccccc23)O[C@@H]1C(=O)c1ccccc1 ?
79
